Record form. Attribute: protein stability index. Fill in for each entry.
B1: CDKN1A (parent)
chain: GRKRRQTSMTDFYHSKRRLIFSKR

Variants of: B1
ASSAY REMARKS: protein stability index of a GFP-peptide fusion (GPS, HEK-293T) (PSI 1-6); higher = more stable;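 also: lentivirally expressed fusions sorted by FACS into six bins by GFP to DsRed ratio, PSI derived from sequencing read proportions per bin multiplied by bin number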
APPLIED CONDITIONS: c terminus: a fixed tail appended
Number only, no unit.

// recorded protein stability index for S15F : 3.02

// recorded protein stability index for R2C : 3.93

// recorded protein stability index for G1D : 3.06

// recorded protein stability index for Q6A : 2.06

// recorded protein stability index for H14N : 3.62

// recorded protein stability index for R18H : 2.15

// recorded protein stability index for R24Q : 3.2

// recorded protein stability index for R4G : 3.58

// recorded protein stability index for R5G : 2.4

// recorded protein stability index for R5L : 3.53

// recorded protein stability index for R24C : 3.93

// recorded protein stability index for K3D : 3.2

// recorded protein stability index for I20C : 2.93

// recorded protein stability index for K3P : 2.16

// recorded protein stability index for K23A : 3.19

// recorded protein stability index for T10R : 2.39

// recorded protein stability index for Y13R : 3.93

// recorded protein stability index for M9I : 3.23

// recorded protein stability index for K3Q : 2.98

// recorded protein stability index for H14I : 2.72

// recorded protein stability index for G1Q : 3.03

// recorded protein stability index for F21D : 3.79

// recorded protein stability index for Y13W : 2.7

// recorded protein stability index for G1T : 2.06

// recorded protein stability index for R18K : 2.64

// recorded protein stability index for M9S : 3.08

// recorded protein stability index for M9F : 2.6

// recorded protein stability index for K23L : 1.96

// recorded protein stability index for F21P : 1.99

// recorded protein stability index for R5A : 2.74

// recorded protein stability index for R24H : 2.4

// recorded protein stability index for G1I : 2.94

// recorded protein stability index for K16P : 2.07

// recorded protein stability index for G1F : 2.85

// recorded protein stability index for D11P : 3.34

// recorded protein stability index for T7Y : 2.65

// recorded protein stability index for H14F : 2.96

// recorded protein stability index for R5Y : 3.17

// recorded protein stability index for T10C : 3.68

// recorded protein stability index for K3M : 2.76

// recorded protein stability index for R2V : 3.22

// recorded protein stability index for K3F : 2.4

// recorded protein stability index for R18G : 2.8

// recorded protein stability index for Q6R : 2.4

// recorded protein stability index for T10K : 2.52

// recorded protein stability index for K16T : 4.09

// recorded protein stability index for S15N : 3.16

// recorded protein stability index for K3E : 2.19

// recorded protein stability index for Y13D : 4.24

// recorded protein stability index for R2H : 2.33

// recorded protein stability index for L19H : 3.78

// recorded protein stability index for R18A : 3.35

// recorded protein stability index for K23T : 3.3

// recorded protein stability index for Y13E : 3.73

// recorded protein stability index for T10A : 1.75

// recorded protein stability index for G1P : 3.63

// recorded protein stability index for R18S : 2.77

// recorded protein stability index for R4H : 2.98

// recorded protein stability index for R5I : 3.03

// recorded protein stability index for M9R : 3.05

// recorded protein stability index for S8R : 2.72

// recorded protein stability index for Y13G : 3.02

// recorded protein stability index for T7A : 1.97

// recorded protein stability index for Q6Y : 2.67

// recorded protein stability index for R17S : 3.19

// recorded protein stability index for Y13N : 3.25

// recorded protein stability index for S22I : 2.53
